test: AUC of epirubicin following intravenous epirubicin solution at 1 mg.Kg-1 dose in rabbit; type: ADME, organism-based, Oryctolagus cuniculus; conditions: both, New Zealand White, blood
parameter: AUC (µg·h/mL)
Numbers only, in µg·h/mL.

Item under review: COc1cccc2c1C(=O)c1c(O)c3c(c(O)c1C2=O)C[C@@](O)(C(=O)CO)C[C@@H]3O[C@H]1C[C@H](N)[C@@H](O)[C@H](C)O1.Cl [EPIRUBICIN HYDROCHLORIDE] . Reported AUC?
0.18

* * *

assay: Volume of distribution of adriamycin following intravenous adriamycin at 1.27 mg.Kg-1 dose in dog; format: ADME, organism-based, Canis lupus familiaris; design: dose 1.27 mg.Kg-1, dosed compound id 2.46809e+06, dosed compound name Doxorubicin, route intravenous; settings: Beagle, plasma
parameter: Vd (L/kg)
One number for each entry, in L/kg.

Tell me the measured Vd of COc1cccc2c1C(=O)c1c(O)c3c(c(O)c1C2=O)C[C@@](O)(C(=O)CO)C[C@@H]3O[C@H]1C[C@H](N)[C@H](O)[C@H](C)O1 , please.
19.1

* * *

test: AUC (2-8 h) of ADR-529 following intravenous ADR-529 at 10 mg.Kg-1 dose administered approximately 25 minute prior to epirubicin once weekly for four weeks in dog; format: ADME, organism-based, Canis lupus familiaris; set-up: dose 10 mgKg-1, dosed compound id 2.4681e+06, dosed compound name Dexrazoxane, dose level Intermediate, route intravenous, sampling time 8 h, study doses 5/10/20 mgKg-1; details: Beagle, plasma
parameter: AUC (ng·h/mL)
One number for each entry, in ng·h/mL.

Which AUC value is on record for C[C@@H](CN1CC(=O)NC(=O)C1)N1CC(=O)NC(=O)C1 ?
2710

* * *

test: Urinary excretion of epirubicin following epirubicin at 75-90 mg.m-2 dose in cancer patients; format: ADME, organism-based; conditions: human, urine; read-out: Compound recovery
parameter: dose excreted at 48 h (%)
Give bare numbers, in %.

# get_value(readout='dose excreted at 48 h', item= COc1cccc2c1C(=O)c1c(O)c3c(c(O)c1C2=O)C[C@@](O)(C(=O)CO)C[C@@H]3O[C@H]1C[C@H](N)[C@@H](O)[C@H](C)O1.Cl [EPIRUBICIN HYDROCHLORIDE] )
5.9

* * *

test: Biliary excretion of epirubicin following epirubicin at 50 mg.m-2 dose in cancer patients; format: ADME, organism-based; conditions: human, bile, at 50 mg/m2, read-out: Compound recovery
parameter: dose excreted at 96 h

Field request: dose excreted at 96 h | item: COc1cccc2c1C(=O)c1c(O)c3c(c(O)c1C2=O)C[C@@](O)(C(=O)CO)C[C@@H]3O[C@H]1C[C@H](N)[C@@H](O)[C@H](C)O1.Cl [EPIRUBICIN HYDROCHLORIDE]
21.9%

* * *

test: Urinary elimination of 4'-epiadriamycin following intravenous bolus 4'-epiadriamycin at 10 mg.Kg-1 dose in rat; assay type: ADME, organism-based; conditions: SD, urine, read-out: Compound recovery
parameter: dose excreted (%)
Answers are plain numbers, in %.

// dose excreted lookup, key: COc1cccc2c1C(=O)c1c(O)c3c(c(O)c1C2=O)C[C@@](O)(C(=O)CO)C[C@@H]3O[C@H]1C[C@H](N)[C@@H](O)[C@H](C)O1.Cl [EPIRUBICIN HYDROCHLORIDE]
4.83
